Tested on: MOLM-13
Assay: Cell growth inhibition, MOLM-13 leukemia cells (CellTiter-Glo)
Assay type: cell-based
Conditions: Homo sapiens, MOLM-13, 96 h; 4 days; read-out: IC50 (nM) MOLM-13 Cell Line (CellTiter-Glo assay)
measured.quantity: IC50 (nM)

// known answers, use as guide
COc1cc2c(cc1-c1c(C)noc1C)[nH]c1nc(C)nc(Nc3ncnn3C(C)C)c12 | 82.1
CCc1nn(C)c(Nc2nc(C)nc3[nH]c4cc(-c5c(C)noc5C)c(OC)cc4c23)c1C | 63.3
COc1cc2c(cc1-c1c(C)noc1C)[nH]c1nc(C)nc(Nc3cccc4cccnc34)c12 | 1130
CCn1nc(C)c(C)c1Nc1nc(C)nc2[nH]c3cc(-c4c(C)noc4C)c(OC)cc3c12 | 27.1

(a) COc1cc2c(cc1-c1c(C)noc1C)[nH]c1nc(C)nc(Nc3cn(C)nc3C)c12
(b) COc1cc2c(cc1-c1c(C)noc1C)[nH]c1nc(C)nc(Nc3ccc4c(c3)N(C)CC4)c12
(c) CCn1nc(C)cc1Nc1nc(C)nc2[nH]c3cc(-c4c(C)noc4C)c(OC)cc3c12
(d) COc1cc2c(cc1-c1c(C)noc1C)[nH]c1nc(C)nc(Nc3c(C)cnn3C)c12
Prompt: Provide the items ranked by increasing IC50. // list labels; follow requested order
Completion: c, a, b, d
(c: 15.4 nM, a: 32.7 nM, b: 62 nM, d: 117 nM)

====

Test system: MOLM-13
Assay: Cell growth inhibition, MOLM-13 leukemia cells (CellTiter-Glo)
Format: cell-based
Conditions: Homo sapiens, MOLM-13, 96 h; 4 days; read-out: IC50 (nM) MOLM-13 Cell Line (CellTiter-Glo assay)
measured.quantity: IC50 (nM)

(I) COc1cc2c(cc1-c1c(C)noc1C)[nH]c1nc(C)nc(Nc3cc(C)nn3C(C)C)c12 [Cpd. No. 9]
(II) COc1cc2c(cc1-c1c(C)noc1C)[nH]c1nc(C)nc(Nc3cc(Cl)ccc3F)c12 [Cpd. No. 224]
Prompt: Which has the higher IC50, I or II ? Lab note: record the label of whichever item you select.
Completion: II

(1) CCn1nccc1Nc1nc(C)nc2[nH]c3cc(-c4c(C)noc4C)c(OC)cc3c12 [Cpd. No. 173]
(2) COc1cc2c(cc1-c1c(C)noc1C)[nH]c1nc(C)nc(Nc3cc(C(C)(C)C)ns3)c12 [Cpd. No. 133]
(3) COc1cc2c(cc1-c1c(C)noc1C)[nH]c1nc(C)nc(Nc3cn(C)nc3C3CC3)c12 [Cpd. No. 195]
(4) COc1cc2c(cc1-c1c(C)noc1C)[nH]c1nc(C)nc(Nc3cn(C)nc3C(F)(F)F)c12 [Cpd. No. 179]
Prompt: Falling order of IC50, please. // list labels; follow requested order
Completion: 4, 2, 1, 3

====

Molecular target: recombinant BRD4 BD1 (Homo sapiens)
Construct: for recombinant BRD4 BD1 and BRD4 BD2 proteins
Assay: Competitive fluorescence-polarization (FP) binding assay, BRD4 BD1
Conditions: FP competitive binding, BRD4 BD1; read-out: Binding affinities (FP) BRD4BD1 IC50
pIC50: −log10 of the molar value.
measured.quantity: pIC50

// known answers, use as guide
COc1cc2c(cc1-c1c(C)noc1C)[nH]c1nc(CS(C)(=O)=O)nc(Nc3cc(C4CC4)nn3C)c12 | 8.62
COCCc1nc(Nc2cc(C3CC3)nn2C)c2c(n1)[nH]c1cc(-c3c(C)noc3C)c(OC)cc12 | 8.51
COc1cc2c(cc1-c1c(C)noc1C)[nH]c1nc(C)nc(Nc3cc(C4CC4)nn3C3CCOCC3)c12 | 8.35

(1) COc1nc2c(cc1-c1c(C)noc1C)[nH]c1nc(C)nc(Nc3cc(C)nn3C(C)(C)C)c12
(2) COc1cc2c([nH]c3ccnc(Nc4cc(C5CC5)nn4C)c32)c(F)c1-c1c(C)noc1C
Prompt: Which has the higher pIC50, 1 or 2 ? Lab note: record the label of whichever item you select.
Completion: 2
(2: 7.74, 1: 6.42)

(A) COc1nc2c(cc1-c1c(C)noc1C)[nH]c1nc(C)nc(Nc3cc(C4CC4)nn3C)c12
(B) COc1cc2c([nH]c3nc(C)nc(Nc4cc(C5CC5)nn4C)c32)c(F)c1-c1c(C)noc1C
Prompt: Which has the higher pIC50, A or B ? Lab note: record the label of whichever item you select.
Completion: B
(B: 7.80, A: 6.70)

====

System: MDA-MB-436
Assay: Cell growth inhibition, MDA-MB-436 breast cancer cells (WST-8)
Assay type: cell-based
Conditions: Homo sapiens, MDA-MB-436, 96 h; 4 days; read-out: IC50 (nM) MDA-MB-436 Cell Line (WST assay)
measured.quantity: IC50 (nM)

(1) COc1cc2c(cc1-c1c(C)noc1C)[nH]c1nc(C)nc(Nc3cccc4[nH]ccc34)c12
(2) COc1cc2c(cc1-c1c(C)noc1C)[nH]c1nc(C)nc(Nc3cccc4nc(C)ccc34)c12
Prompt: I'm curious, which of these has a smaller IC50 number: 1 or 2 ? Lab note: record the label of whichever item you select.
Completion: 1

====

System: MDA-MB-436
Test: Cell growth inhibition, MDA-MB-436 breast cancer cells (WST-8)
Type: cell-based
Conditions: Homo sapiens, MDA-MB-436, 96 h; 4 days; read-out: IC50 (nM) MDA-MB-436 Cell Line (WST assay)
measured.quantity: IC50 (nM)

// known answers, use as guide
COc1cc2c(cc1-c1c(C)noc1C)[nH]c1nc(C)nc(Nc3sc(C)nc3C)c12 | 110
COc1cc2c(cc1-c1c(C)noc1C)[nH]c1nc(C)nc(Nc3nn(C)c4ccc(Cl)cc34)c12 | 1080

(a) COc1cc2c(cc1-c1c(C)noc1C)[nH]c1nc(C)nc(Nc3nn(C)c4cccc(F)c34)c12
(b) COc1cc2c(cc1-c1c(C)noc1C)[nH]c1nc(C)nc(Nc3n[nH]c4ccccc34)c12
(c) CCn1ncc(C)c1Nc1nc(C)nc2[nH]c3cc(-c4c(C)noc4C)c(OC)cc3c12
(d) CCn1nc(C)cc1Nc1nc(C)nc2[nH]c3cc(-c4c(C)noc4C)c(OC)cc3c12
Prompt: Falling order of IC50, please. // list labels; follow requested order
Completion: a, c, b, d

====

Target: recombinant BRD4 BD1 (Homo sapiens, UniProt O60885)
Construct: for recombinant BRD4 BD1 and BRD4 BD2 proteins
Assay: Competitive fluorescence-polarization (FP) binding assay, BRD4 BD1; on IC50 (nM) BRD4 BD1: probe 1.5 nM
Settings: competitive FP assay; protein 10 nM, probe […]; read-out: IC50 (nM) BRD4 BD1
measured.quantity: IC50 (nM)

// known answers, use as guide
CCn1nc2c(c1Nc1nc(C)nc3[nH]c4cc(-c5c(C)noc5C)c(OC)cc4c13)CCCC2 | 4.5
COc1cc2c(cc1-c1c(C)noc1C)[nH]c1nc(C(C)C)nc(Nc3nn(C)c4ccccc34)c12 | 211
COc1cc2c(cc1-c1c(C)noc1C)[nH]c1nc(C)nc(NC3CCCC3)c12 | 582
CCc1cccc(Nc2nc(C)nc3[nH]c4cc(-c5c(C)noc5C)c(OC)cc4c23)c1 | 19
COc1cc2c(cc1-c1c(C)noc1C)[nH]c1nc(C)nc(Nc3cccc(N(C)C)c3)c12 | 13
COc1cc2c(cc1-c1c(C)noc1C)[nH]c1nc(C)nc(Nc3cc(C(C)(C)C)nn3C)c12 | 9.6

(P) CCn1nc(C2CC2)c(C)c1Nc1nc(C)nc2[nH]c3cc(-c4c(C)noc4C)c(OC)cc3c12
(Q) COc1cc2c(cc1-c1c(C)noc1C)[nH]c1nc(C)nc(Nc3nn(C)c4cc(F)ccc34)c12
Prompt: I'm curious, which of these has a smaller IC50 number: P or Q ? Lab note: record the label of whichever item you select.
Completion: P

====

System: MOLM-13
Assay: Cell growth inhibition, MOLM-13 leukemia cells (CellTiter-Glo)
Format: cell-based
Conditions: Homo sapiens, MOLM-13, 96 h; 4 days; read-out: IC50 (nM) MOLM-13 Cell Line (CellTiter-Glo assay)
Description: Cell growth inhibitory activity of representative Compounds of the Disclosure was determined using CellTiter-Glo® Luminescent Cell Viability Assay. […] Cell viability was determined using the CellTiter-Glo® Luminescent Cell Viability Assay Kit (Promega, Madison, Wis.) according to the manufacture's instruction. […] The luminescent signal was measured using a Tecan Infinite M1000 multimode microplate reader (Tecan, Morrisville, N.C.). […]
measured.quantity: IC50 (nM)

// known answers, use as guide
COc1cc2c(cc1-c1c(C)noc1C)[nH]c1nc(C)nc(Nc3cnn4ccccc34)c12 | 23.7
COc1cc2c(cc1-c1c(C)noc1C)[nH]c1nc(C)nc(NC3CCCCC3)c12 | 15000

(a) COc1cc2c(cc1-c1c(C)noc1C)[nH]c1nc(C)nc(Nc3n[nH]c4ccccc34)c12
(b) COc1cc2c(cc1-c1c(C)noc1C)[nH]c1nc(C)nc(Nc3nn(C)cc3C(C)C)c12
Prompt: I'm curious, which of these has a smaller IC50 number: a or b ? Lab note: record the label of whichever item you select.
Completion: a
(a: 32 nM, b: 97.4 nM)
